Measured 50% inhibition concentration, Regnase-1 phosphorylation by IKKβ (AlphaScreen), listed per entry for reference.
Molecular target: T1, C-terminal human Regnase-1 (amino acids 301 to 599) with N-terminal FLAG tag and C-terminal BirA recognition … (human, UniProt Q5D1E8 301-599)
T1 sequence: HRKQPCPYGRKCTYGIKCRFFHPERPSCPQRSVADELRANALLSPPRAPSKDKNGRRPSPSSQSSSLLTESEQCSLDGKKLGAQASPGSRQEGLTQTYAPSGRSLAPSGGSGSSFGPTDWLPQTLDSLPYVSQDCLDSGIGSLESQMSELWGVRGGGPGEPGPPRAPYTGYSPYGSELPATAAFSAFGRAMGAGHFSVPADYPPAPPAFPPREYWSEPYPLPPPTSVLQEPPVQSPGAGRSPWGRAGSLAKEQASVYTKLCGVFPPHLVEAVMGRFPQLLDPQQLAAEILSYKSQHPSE
Test: cell-based or functional assay

{"columns": ["binder", "result"],
 "data": [
  ["XHSNAWYNIWD (HELM PEPTIDE1{[meA].H.S.N.A.W.Y.N.I.W.D.[C1CCN([*:1])C1]}$PEPTIDE1,PEPTIDE1,1:R1-11:R3$$$V2.0; SMILES CC[C@H](C)[C@@H]1NC(=O)[C@H](CC(N)=O)NC(=O)[C@H](Cc2ccc(O)cc2)NC(=O)[C@H](Cc2c[nH]c3ccccc23)NC(=O)[C@H](C)NC(=O)[C@H](CC(N)=O)NC(=O)[C@H](CO)NC(=O)[C@H](Cc2c[nH]cn2)NC(=O)[C@H](C)N(C)C(=O)C[C@@H](C(=O)N2CCCC2)NC(=O)[C@H](Cc2c[nH]c3ccccc23)NC1=O) [PP5]", "31.3 µM"]
]}

Next item in the queue.
## Input Query (binder): XKFWIHHSFED (HELM PEPTIDE1{[meA].K.F.W.I.H.H.S.F.E.D.[C1CCN([*:1])C1]}$PEPTIDE1,PEPTIDE1,1:R1-11:R3$$$V2.0; SMILES CC[C@H](C)[C@@H]1NC(=O)[C@H](Cc2c[nH]c3ccccc23)NC(=O)[C@H](Cc2ccccc2)NC(=O)[C@H](CCCCN)NC(=O)[C@H](C)N(C)C(=O)C[C@@H](C(=O)N2CCCC2)NC(=O)[C@H](CCC(=O)O)NC(=O)[C@H](Cc2ccccc2)NC(=O)[C@H](CO)NC(=O)[C@H](Cc2c[nH]cn2)NC(=O)[C@H](Cc2c[nH]cn2)NC1=O) [PP20] ; field requested: 50% inhibition concentration, Regnase-1 phosphorylation by IKKβ (AlphaScreen)
## Output > 62.1 µM
